test system: β-adrenergic receptor (β2), guinea-pig tracheal ring (Cavia porcellus, UniProt Q8K4Z4)
Construct: The trachea is dissected from guinea-pigs; from tissue; host or cells: guinea-pig tracheal smooth muscle (rings)
Sequence (Q8K4Z4 whole entry): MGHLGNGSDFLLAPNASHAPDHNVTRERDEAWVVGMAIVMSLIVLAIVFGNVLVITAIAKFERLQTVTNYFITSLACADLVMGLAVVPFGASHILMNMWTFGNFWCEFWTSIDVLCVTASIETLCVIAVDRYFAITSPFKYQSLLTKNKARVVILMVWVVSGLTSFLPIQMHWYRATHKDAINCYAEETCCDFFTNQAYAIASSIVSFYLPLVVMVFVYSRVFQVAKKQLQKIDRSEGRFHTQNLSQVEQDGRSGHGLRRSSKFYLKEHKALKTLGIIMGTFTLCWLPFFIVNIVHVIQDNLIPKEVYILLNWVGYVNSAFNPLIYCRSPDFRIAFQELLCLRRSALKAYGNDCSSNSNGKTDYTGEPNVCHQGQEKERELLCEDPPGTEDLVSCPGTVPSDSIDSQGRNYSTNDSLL
assay text: Guinea-pig tracheal ring (β2): inhibition of isoprenaline-induced relaxation
Format: cell-based
assay setup: Table I; guinea-pig tracheal ring, methacholine 1 μg/ml, isoprenaline 0.08 μg/ml, 30 min after drug, 35° C.; probit analysis; read-out: β2 = ED50 tracheal ring (converted)
measurement kind: log10 IC50 (log10 of the value in µM)
Please be aware that the numbers have been log10-transformed from IC50 in µM.

Find the recorded log10 IC50 belonging to CC(=O)c1ccc(OCC(O)CN2CCCC(Cn3c(=O)[nH]c4ccccc43)C2)cc1 (stereo not shown) and report it. -1.33

Requested read-out: log10 IC50. Entry: O=c1[nH]c2cc(Cl)ccc2n1CC1CCCN(CC(O)COc2ccccc2)C1 (stereo not shown) -0.72

Fill blank: measured log10 IC50 of the compound Cc1cccc(OCC(O)CN2CCCC(Cn3c(=O)[nH]c4ccccc43)C2)c1 (stereo not shown) is ____. -1.30

Look up log10 IC50: CC(=O)c1ccccc1OCC(O)CN1CCCC(Cn2c(=O)[nH]c3ccccc32)C1 (stereo not shown) -2.53

Look up log10 IC50: Cc1cc(OCC(O)CN2CCCC(Cn3c(=O)[nH]c4ccccc43)C2)cc(C)c1Cl (stereo not shown) 0.45

Query (compound): O=c1[nH]c2ccccc2n1CC1CCCN(CC(O)COc2ccc(F)cc2)C1 (stereo not shown) ; field requested: log10 IC50 -1.60

I am curious: what log10 IC50 value has been reported for O=c1[nH]c2ccccc2n1CC1CCCN(CC(O)COc2ccc(Cl)cc2)C1 (stereo not shown) ? -0.11

Given O=c1[nH]c2ccccc2n1CC1CCCN(CC(O)COc2ccccc2Br)C1 (stereo not shown) , state its recorded log10 IC50. -0.92

# log10 IC50 lookup, item CCOc1ccccc1OCC(O)CN1CCCC(Cn2c(=O)[nH]c3ccc(Cl)cc32)C1 (stereo not shown) -0.41

Quick check: log10 IC50 of Cc1cccc(OCC(O)CN2CCCC(Cn3c(=O)[nH]c4ccccc43)C2)c1C (stereo not shown) ? -1.31

Which measured log10 IC50 value corresponds to CCCOc1ccccc1OCC(O)CN1CCCC(Cn2c(=O)[nH]c3ccccc32)C1 (stereo not shown) ? -1.64

Request the reported log10 IC50 associated with O=c1[nH]c2ccc(Cl)cc2n1CC1CCCN(CC(O)COc2cccc3ccccc23)C1 (stereo not shown) -0.46

Consider the compound shown here: C=CCc1ccccc1OCC(O)CN1CCCC(Cn2c(=O)[nH]c3ccccc32)C1 (stereo not shown) What is its recorded log10 IC50? -1.07

Can you share its log10 IC50? I mean this compound: CCCc1ccc(OCC(O)CN2CCCC(Cn3c(=O)[nH]c4cc(F)ccc43)C2)cc1 (stereo not shown) 0.16

May I ask what log10 IC50 has been recorded for COc1ccccc1OCC(O)CN1CCCC(Cn2c(=O)[nH]c3ccc(Cl)cc32)C1 (stereo not shown) ? -1.05

Look up log10 IC50 for this compound: O=c1[nH]c2ccccc2n1CC1CCCN(CC(O)COc2cccc3ccccc23)C1 (stereo not shown) 0.46

* * *

test system: β-adrenergic receptor (β2), guinea-pig tracheal ring (Cavia porcellus)
Construct: The trachea is dissected from guinea-pigs; from tissue; host or cells: guinea-pig tracheal smooth muscle (rings)
assay text: Guinea-pig tracheal ring (β2): inhibition of isoprenaline-induced relaxation
Assay type: cell-based
assay setup: Table I; guinea-pig tracheal ring, methacholine 1 μg/ml, isoprenaline 0.08 μg/ml, 30 min after drug, 35° C.; probit analysis; read-out: β2 = ED50 tracheal ring (converted)
measurement kind: IC50

# IC50 lookup, item O=c1[nH]c2ccccc2n1CC1CCCN(CC(O)COc2ccc(Br)cc2)C1 (stereo not shown) [4-BrC6 H4, H] 2.72 µM

Data request, read-out IC50, for COc1ccc(OCC(O)CN2CCCC(Cn3c(=O)[nH]c4ccccc43)C2)cc1 (stereo not shown) [4-(CH3 O)C6 H4, H] 0.0486 µM

Look up IC50: N#Cc1ccccc1OCC(O)CN1CCCC(Cn2c(=O)[nH]c3ccc(Cl)cc32)C1 (stereo not shown) [2-CNC6 H4,6-Cl] 0.181 µM

GET /values?readout=IC50&item= O=c1[nH]c2ccccc2n1CC1CCCN(CC(O)COc2ccccc2)C1 (stereo not shown) [C6 H5, H] 0.0233 µM

Please look up its IC50: CCOc1ccccc1OCC(O)CN1CCCC(Cn2c(=O)[nH]c3ccccc32)C1 (stereo not shown) [2-(C2 H5 O)C6 H4, H] 0.0235 µM

Sample CC(=O)Nc1ccc(OCC(O)CN2CCCC(Cn3c(=O)[nH]c4ccccc43)C2)cc1 (stereo not shown) [4-(CH3 CONH)C6 H4, H] — what was its IC50? 0.41 µM

// lookup IC50 for C=CCOc1ccccc1OCC(O)CN1CCCC(Cn2c(=O)[nH]c3ccccc32)C1 (stereo not shown) [2-(CH2CHCH2 O)C6 H4, H] 0.0457 µM

Value lookup for IC50; key = CCCCNC(=O)Nc1ccc(OCC(O)CN2CCCC(Cn3c(=O)[nH]c4ccccc43)C2)cc1 (stereo not shown) [4-(nC4 H9NHCONH)C6 H4, H] 0.161 µM

Please report the recorded IC50 for CCc1ccccc1OCC(O)CN1CCCC(Cn2c(=O)[nH]c3ccccc32)C1 (stereo not shown) [2-(C2 H5)C6 H4, H] . 0.0488 µM

If you can, please state the reported IC50 value of CSc1ccc(OCC(O)CN2CCCC(Cn3c(=O)[nH]c4ccccc43)C2)cc1 (stereo not shown) [4-(CH3 S)C6 H4, H] . 0.0468 µM

Item under review: O=c1[nH]c2cc(F)ccc2n1CC1CCCN(CC(O)COc2ccccc2)C1 (stereo not shown) [C6 H5,5-F] . Reported IC50? 0.0125 µM

For the molecule shown here, COc1ccccc1OCC(O)CN1CCCC(Cn2c(=O)[nH]c3ccccc32)C1 (stereo not shown) [2-(CH3 O)C6 H4, H] , give the reported IC50. 0.0122 µM

Entry under review: O=c1[nH]c2cc(Cl)ccc2n1CC1CCCN(CC(O)COc2ccc(F)cc2)C1 (stereo not shown) [4-FC6 H4,5-Cl] . Reported IC50? 0.714 µM

Need IC50, item N#Cc1ccccc1OCC(O)CN1CCCC(Cn2c(=O)[nH]c3ccccc32)C1 (stereo not shown) [2-CNC6 H4, H] 0.0123 µM

Form field: reported IC50 of O=c1[nH]c2ccc(Cl)cc2n1CC1CCCN(CC(O)COc2ccc(F)cc2)C1 (stereo not shown) [4-FC6 H4,6-Cl] 0.184 µM

# query: IC50 of entry CC(C)Oc1ccccc1OCC(O)CN1CCCC(Cn2c(=O)[nH]c3ccccc32)C1 (stereo not shown) [2-(iC3 H7 O)C6 H4, H] 0.091 µM
